All figures here come from PubChem BioAssay (NCI).

Test system: MOLT-4 leukemia
Test: NCI-60 one-dose screen, 48 h
Details: 10 µM unless noted
Compounds without any hit were thinned out: in the full panel of roughly 83,000, 20% have a hit. The source made the active and inactive calls. How the source made its calls: active means growth percent below 10; inactive means the rest.
Classes used: active, inactive

>>> cat("CCCCCCCC(=O)SCC/C=C/[C@@H]1CC(=O)NCc2cccc(n2)CN(Cc2ccc(Cl)cc2)CC(=O)N[C@@H](C(C)C)C(=O)O1")
"active"
>>> cat("COC(=O)[C@]12CC[C@@H](C)[C@H](C)[C@@H]1C1=CC[C@@H]3[C@@]4(C)C=C(O)C(=O)C(C)=C4CC[C@@]3(C)[C@]1(C)CC2")
"active"
>>> cat("CCCCn1c(-c2ccc(O)cc2)cn2c3c(=O)[nH]c(=O)n(C)c3nc12")
"inactive"
>>> cat("CC(=O)O[C@@H]1CCN2C(=O)N(C)c3ccccc3[C@@H]2C1")
"inactive"
>>> cat("COc1cc(-c2cc3cc(O)ccc3oc2=O)cc(OC)c1OC")
"inactive"
>>> cat("CC(=O)O[C@H]1CC[C@]2(C)[C@H]3CC=C4[C@@H]5[C@H](C)[C@@H](C)CC[C@]5(C(=O)NCCNCCNCCN)CC[C@@]4(C)[C@]3(C)CC[C@H]2C1(C)C")
"inactive"
>>> cat("Cc1cc(N(CCCNc2ccnc3cc(Cl)ccc23)Cc2ccco2)nc(N2CCN(C)CC2)n1")
"inactive"
>>> cat("OCC(CO)(CCl)CCl")
"inactive"

----------
Tested on: MALME-3M melanoma
Test: NCI-60 one-dose screen, 48 h
Settings: 10 µM unless noted
About 83,000 compounds went through this panel and 20% of them were active in at least one assay; those are over-represented in the sample as a whole. Activity calls are given as the source filed them. Rule for the calls: active = growth percent below 10; inactive = the rest.
Possible outcomes: 1 (yes) = active, 0 (no) = inactive

>>> cat("CCCCC[C@H]1CC=C2C(=O)C(Cl)=C[C@@H]2CC=CCCCC(=O)O[C@@H](CCCCC)CC=C2C(=O)C(Cl)=C[C@@H]2CC=CCCCC(=O)O[C@@H](CCCCC)CC=C2C(=O)C(Cl)=C[C@@H]2CC=CCCCC(=O)O1")
"0 (no)"
>>> cat("CC(C)(C)c1nc(-c2ccc(O)c(O)c2)cs1")
"0 (no)"
>>> cat("CC1=NN(c2ccc(S(=O)(=O)O)cc2Cl)C(=O)C1")
"0 (no)"
>>> cat("COc1ccc2c(c1)C/C(=C\\c1cc(-c3ccc4c(c3)OCO4)n[nH]1)C2=O")
"0 (no)"
>>> cat("CC(C)/C=C/CC[C@](C)(O)[C@H]1CC[C@]2(C)[C@@H]1CC[C@@H]1[C@@]3(C)C/C(=C/c4cccc(C(F)(F)F)c4)C(=O)C(C)(C)[C@@H]3CC[C@]12C")
"0 (no)"
>>> cat("CCCCC[C@H]1C/C=C2/C(=O)C(Cl)=C[C@@H]2C/C=C\\CCCC(=O)O[C@@H](CCCCC)C/C=C2/C(=O)C(Cl)=C[C@@H]2C/C=C\\CCCC(=O)O1")
"1 (yes)"
>>> cat("O=c1c(CNc2ccc(S(=O)(=O)Nc3ncccn3)cc2)coc2ccccc12")
"0 (no)"

----------
Test system: A498 renal
Assay: NCI-60 one-dose screen, 48 h
Settings: 10 µM unless noted
The panel holds about 83,000 compounds, 20% with a hit somewhere; the sample as a whole holds those more often. Active and inactive are the calls of the source. How the source made its calls: active means growth percent below 10; inactive means the rest.
Classes used: Yes = active, No = inactive

>>> cat("Cc1ccncc1C(=O)O")
"No"
>>> cat("CCCC1CCCCN1C(=O)OCC(C)C (centres undefined)")
"No"
>>> cat("N#CCCCCCn1c2ccccc2c2c3c(c4c5ccccc5n(CCCCCC#N)c4c21)C(=O)N(O)C3=O")
"No"
>>> cat("CN(C)c1ccc(N)c2ccccc12")
"No"
>>> cat("COc1cccc(NC(=O)c2sc3nc4c(cc3c2N)C(=O)CCC4)c1")
"Yes"
>>> cat("C=C(C)[C@@H]1CC[C@]2(C)[C@H](CC=C3[C@@H]4CC(C)(C)CC[C@]4(C=O)CC[C@]32C)[C@@]1(C)CCCN")
"No"
>>> cat("c1cnc2[nH]cc(-c3csc(-c4cn(CCCN5CCCCC5)c5ccccc45)n3)c2c1")
"No"
>>> cat("CN(C)c1ccc(N=C2C=CC(=O)C=C2)cc1")
"No"
>>> cat("Cn1cc(-c2csc(-c3cn(CCN)c4ccc(Br)cc34)n2)c2cccnc21")
"No"
>>> cat("Nc1c2c(nc3ccc(Br)cc13)CC(c1ccccc1)CC2=O (centres undefined)")
"Yes"
>>> cat("C=C(C)[C@@H]1CC[C@]2(/C=N/Nc3ccncc3)CC[C@]3(C)[C@H](CC[C@@H]4[C@@]5(C)CCCNC(C)(C)[C@@H]5CC[C@]43C)[C@@H]12")
"No"
>>> cat("Nc1nc(Br)nc2c1ncn2C1CC(O)C(CO)O1 (centres undefined)")
"No"
>>> cat("Oc1cc(/C=C/c2nc(N3CCOCC3)c3cc(Cl)c(Cl)cc3n2)cc(O)c1O")
"No"
>>> cat("COc1ccc2c(c1)c(-c1nc(-c3cn(C)c4ncccc34)cs1)cn2CCCN1CCCCC1")
"No"
>>> cat("CC(=O)NC1=C(C#N)C(c2ccccc2Cl)c2c(ccc3ccccc23)O1 (centres undefined)")
"No"
>>> cat("COc1ccc(O)c(-c2cc(-c3ccc(Cl)cc3)c(C#N)c(=O)[nH]2)c1")
"No"
>>> cat("CCCCC[C@H]1C/C=C2/C(=O)C(Cl)=C[C@@H]2C/C=C\\CCCC(=O)O1")
"Yes"
>>> cat("Cc1cc2nc3c4cc(O)ccc4n(CCN(C)C)c3nc2cc1C")
"Yes"
>>> cat("O=C1C(=O)c2ccccc2C(O)=C1CCCc1ccc(C2CCCCC2)cc1")
"No"
>>> cat("COc1ccc2nc(-c3c(-c4ccccc4)nc4ncccn34)[nH]c2c1")
"No"
>>> cat("Cc1ccsc1-c1ccc2c(c1)COC2(CCCN(C)C)c1ccc(F)cc1 (centres undefined)")
"No"
>>> cat("Cc1cccc(C)c1NC(=O)CSC(=S)N1CCCCC1")
"No"
>>> cat("O=C1C(=O)N(CCCCn2cc(-c3ccccc3)nn2)c2ccccc21")
"No"
>>> cat("CCc1nnc(NC(=O)c2ccoc2COc2ccccc2)s1")
"No"
>>> cat("CN(C)c1ccc(C(=O)c2ccc(N(C)C)c(N)c2)cc1N")
"No"
>>> cat("CCSc1ncnc2c1ncn2C1OC(CO)C(O)C1O (centres undefined)")
"No"
>>> cat("O=C1c2cccc3cccc(c23)C(=O)N1CC#Cc1ccc2c3c(cccc13)C(=O)N(CCN1CCNCC1)C2=O")
"No"
>>> cat("CN1CCN(c2ccc3nc(-c4[nH]ncc4Nc4ncnc5[nH]ccc45)[nH]c3c2)CC1")
"Yes"
>>> cat("C=C1CC[C@@H](C(=O)OC)Cc2nc(C)ccc21")
"No"
>>> cat("CC(=O)OC[C@]12CC[C@@H](/C(C)=N/O)[C@@H]1[C@H]1CC[C@@H]3[C@@]4(C)CCCNC(C)(C)[C@@H]4CC[C@@]3(C)[C@]1(C)CC2")
"No"
>>> cat("CC(C)(C)c1ccc(OP(=S)(N/N=C/c2ccccc2O)Oc2ccc(C(C)(C)C)cc2)cc1")
"No"
>>> cat("Cn1cc(-c2csc(-c3c[nH]c4ccc(F)cc34)n2)c2cccnc21")
"No"
>>> cat("Cc1cc(Nc2ccc(F)cc2)nc(N2CCN(c3ccnc4cc(Cl)ccc34)CC2)n1")
"Yes"
>>> cat("CNC(=O)c1cc(Oc2ccc3nc(NC(=O)Nc4ccc(Cl)cc4)sc3c2)ccn1")
"No"
>>> cat("CC[C@]12C=CCN3CC[C@@]4(c5cc([C@H]6CCC(=O)N6)c(OC)cc5N(C)[C@H]4[C@@](O)(C(=O)OC)[C@@H]1OC(C)=O)[C@@H]32")
"No"
>>> cat("Cn1c2ccccc2c2c3c(c4c5cccnc5[nH]c4c21)C(=O)N(O)C3=O")
"No"
>>> cat("COC(=O)[C@]12CC[C@@H](C)[C@H](C)[C@@H]1C1=CC(=O)[C@@H]3[C@@]4(C)C[C@@H](OC(C)=O)[C@H](OC(C)=O)[C@@](C)(COC(C)=O)[C@@H]4C(=O)C[C@@]3(C)[C@]1(C)CC2")
"No"
>>> cat("CCc1ccc(-c2ccc(Nc3ccccc3)nn2)cc1S(N)(=O)=O")
"No"
>>> cat("Nc1nc2c(c(=O)[nH]1)C(c1ccc3c(c1)OCO3)C=C(C(=O)O)N2 (centres undefined)")
"No"

----------
Tested on: 786-0 renal
Experiment: NCI-60 one-dose screen, 48 h
Conditions: 10 µM unless noted
The panel holds about 83,000 compounds, 20% with a hit somewhere; the sample as a whole holds those more often. Activity calls are given as the source filed them. How the source made its calls: active means growth percent below 10; inactive means the rest.
Possible outcomes: true = active, false = inactive

>>> cat("COc1cnc2c(c1)C(=O)c1c-2n(CCCNC2=NCCS2)c(=O)c2cc([N+](=O)[O-])ccc12")
"true"
>>> cat("COc1ccc(NC(=S)N/N=C/c2ccccc2SSCCC(=O)OC[C@H]2O[C@H](O)[C@H](O)[C@@H](O)[C@@H]2O)cc1")
"false"
>>> cat("Cn1cc(-c2nc(-c3c[nH]c4ncccc34)cs2)c2cc(Cl)ccc21")
"false"
>>> cat("COc1ccc(C(=O)c2cc(OC)c(OC)c(OC)c2)cc1/C=C/C(=O)c1cc(OC)c(OC)c(OC)c1")
"false"
